target: Tyrosine-protein kinase Lck (Homo sapiens); conditions: at 0.1 µM;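 note: reported values are mean percent inhibition of Lck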
I would appreciate it if you labelled entries yes (1) when inhibition is 2% or higher, otherwise no (0).

Below, 5 compounds whose answers are already recorded.
CCc1nn2ncccc2c1-c1ccnc(NC2CC2)n1 : yes (1)
FC(F)(F)c1cccc(-c2nn3ncccc3c2-c2ccnc(Nc3ccc4c(c3)OCCO4)n2)c1 : yes (1)
COc1cc2c(cc1Nc1nc(Nc3ccsc3C(N)=O)c3cc[nH]c3n1)N(C(=O)CN(C)C)CCC2(C)C : no (0)
c1ccc(COc2ccc(Nc3ncnc4ccc(-c5ccco5)cc34)cc2)cc1 : no (0)
CC(C)(CO)CNC(=O)c1ccc2c(c1)/C(=N/Nc1ccc(S(N)(=O)=O)cc1)C(=O)N2 : no (0)

Could you please find out whether CCCN1CCC(c2ccc(Nc3nc(Nc4cc(F)ccc4C(N)=O)c4cc[nH]c4n3)c(OC)c2)CC1 has inhibition that meets 2% or exceeds it?
yes (1)

Try this compound next: COc1ccc2c(-c3ccnc(Nc4cccc(OC(F)(F)F)c4)n3)cnn2n1
no (0)

Try this compound next: Clc1ccc(-c2nn3ncccc3c2-c2ccnc(Nc3ccccc3)n2)cc1
yes (1)

Measured values drawn from ChEMBL document CHEMBL1961873 for this set.
